# test description: in vitro
# assay conditions: human, hela cells, % viability
Parameter: viability at 28.5 h, 10 µM. Scope: all listed entries.
API: value field is a number in %; no unit string.

Sample records with viability at 28.5 h, 10 µM:
Consider the molecule O=C(Nc1cccc(Cl)c1)c1nnc(C(=O)NC2CCCCC2)s1 and give its measured viability at 28.5 h, 10 µM.
92.6

Next molecule: CN(C)CC(C)(C)CNC(=O)c1cnc2cc(C(F)(F)F)ccc2c1O
97.9

Please find the next molecule below.
Would you mind telling me what viability at 28.5 h, 10 µM value was observed for Nc1cccc(-c2nc(NC(=O)Cc3ccccc3)cnc2-c2ccc(F)cc2)c1 ?
91.3

* * *

# test description: in vitro
# assay conditions: human, hela cells, % viability
Listing of recorded viability at 28.5 h, 10 µM by entry.

Look over these answered cases.
Look up viability at 28.5 h, 10 µM for this compound: Cc1ccccc1C(=O)Nc1ccc(S(=O)(=O)Nc2nccs2)cc1
89.4%

Queued: Cn1c(N2CC[C@H](O)C2)nc2cc(C(=O)NCCn3cccn3)ccc21
111%

Continuing:
What measured viability at 28.5 h, 10 µM goes with O=C(c1ccc2c(c1)ncn2CCO)N1CCC(c2ccccc2F)C1 (centres unmarked) ?
88.5%

Try COc1ccc(S(=O)(=O)NC(C)C(=O)NCc2cccnc2)cc1Cl (centres unmarked) next.
95.8%

Moving on to Fc1ccc(Sc2nc3ccccc3nc2N2CCCC2)cc1
101%

Param item: O=C(CC1SCCNC1=O)NCc1ccccc1 (centres unmarked)
99.1%

Proceed to CCN(CC)C(=O)C1CCCN(C(=O)NC2CCc3ccccc32)C1 (centres unmarked)
92.2%

Also need Cc1cc2ncc3c(n2n1)CC1CCC3N1C(=O)c1cccs1 (centres unmarked) , thanks.
103%

Same thing, different compound: O=c1c2c3c(sc2ncn1CC(O)CO)CCCC3 (centres unmarked)
94.8%

Then this compound: COc1ccc([C@@]23CCC(N)C[C@@H]2N(C)CC3)c(F)c1OC (some centres unmarked)
78.3%

// next record CC1CCCN(C(=O)CCn2c(-c3ccccn3)cc3cccnc32)C1 (centres unmarked)
91.2%

Now the same for OC(CNCCc1c[nH]c2ccccc12)COc1cccc2c1CCCC2 (centres unmarked)
93.9%

Now give it for Cc1cccc(-c2csc3c(=O)[nH]c(N4CCC(C(=O)NCCN(C)C)CC4)nc23)c1 too.
95.8%

Same again, this time with O=C(CCn1cccn1)Nc1ccc(OC2CCCC2)cc1
87.1%

* * *

# test description: in vitro
# assay conditions: human, hela cells, % viability
reported property: viability at 28.5 h, 10 µM (%)
Write down the numeric answer in % and omit the unit.

// viability at 28.5 h, 10 µM lookup, key: O=S(=O)(c1csc2ccccc12)N1CCOCC1
90.7

Next entry: c1ccc2c(OCCOCCN3CCCCC3)cccc2c1
88

---
Would you mind telling me what viability at 28.5 h, 10 µM value was observed for Cc1nc(C)n(CCNC(=O)Cc2coc3cc(C)c(C)cc23)n1 ?
90.7

* * *

# test description: in vitro
# Design: Viability of infected HeLa host cells, resazurin conversion, bulk resorufin fluorescence relative to DMSO
# assay conditions: human, hela cells; bulk resorufin, mean of 2
reported property: viability at 28.5 h, 1 µM (%)
Field: numeric (%). Do not append units.

Illustrative cases are given below, each with its answer.
Using the record for O=C(NCc1cccnc1)/C(=C/c1ccc(-c2cccc(Cl)c2)o1)S(=O)(=O)c1ccccc1 , report its viability at 28.5 h, 1 µM.
107

How about this compound: Cc1cc(C)c2nc(-c3ccccn3)cc(C(=O)Nc3ccc(S(=O)(=O)Nc4onc(C)c4C)cc3)c2c1
100

Same lookup for CC(Cc1nc(-c2nccn2C)cs1)n1cc(Cl)cn1 (stereo not drawn) , please.
108

What about this compound? CCc1nnc(NS(=O)(=O)c2ccc(N/C=C3\C(=O)N(c4ccc(Cl)cc4)N=C3C)cc2)s1
91.9

More entries:
Requested field: viability at 28.5 h, 1 µM. Item: CN(C(=O)c1ccc(Cl)c(Cl)c1)[C@H]1CCC[C@H]1N1CCCC1 [CBK003411C]
112

Now give it for Cc1ccc(OCc2ccccc2)c(C(CCN(C(C)C)C(C)C)c2ccccc2)c1 (stereo not drawn) too.
91.6

Also check O=C(CSCc1c(F)cccc1Cl)Nc1ccc(S(=O)(=O)N2CCCCC2)cc1
91.9
